Data origin: the supplement of paper PMC7600603

Measured TC50 cytotoxicity by item
Test system: DLD1 NRF2-GOF
Experiment: TC50 cytotoxicity; higher = less toxic
Details: 72 h; CellTox Green cytotoxicity
observable: TC50 cytotoxicity

molecule	result
COc1cc(N2CCC(N3CCN(C)CC3)CC2)ccc1Nc1ncnc(Nc2ccccc2S(=O)(=O)C(C)C)n1	> 10 µM
CC[C@@H]1CN(C(=O)NCC(F)(F)F)C[C@@H]1c1cnc2cnc3[nH]ccc3n12	> 10 µM
CCCCc1nc2cc(/C=C/C(=O)NO)ccc2n1CCN(CC)CC	> 10 µM
Cc1cccc(-c2[nH]c(CNc3ccccc3F)nc2-c2ccc3ncnn3c2)n1	> 2.5 µM
CO[C@H]1C(=O)[C@]2(C)[C@@H](OC)C[C@H]3OC[C@@]3(OC(C)=O)[C@H]2[C@H](OC(=O)c2ccccc2)[C@]2(O)C[C@H](OC(=O)[C@H](O)[C@@H](NC(=O)OC(C)(C)C)c3ccccc3)C(C)=C1C2(C)C	> 1 µM
CNC(=O)c1cc(COc2nnc(Nc3ccc(Cl)cc3)c3ccoc23)ccn1	> 10 µM
CCS(=O)(=O)N1CCN(c2ccc(Nc3ncc(C(N)=O)c(NC4CC4)n3)cc2)CC1	> 10 µM
COc1c(C)cnc(Cn2cnc3c(Cl)nc(N)nc32)c1C	> 10 µM
CCn1cc(-c2ccnc3[nH]c(-c4cccc(CN(C)C)c4)cc23)c(-c2ccc(NC(=O)N(C)C)cc2)n1	> 1 µM
CC(=O)c1c(C)c2cnc(Nc3ccc(N4CCNCC4)cn3)nc2n(C2CCCC2)c1=O	> 10 µM
Cc1nc(NC(=O)N2CCC[C@H]2C(N)=O)sc1-c1ccnc(C(C)(C)C(F)(F)F)c1	> 2.5 µM
O=S(=O)(c1cccc2c(O)nccc12)N1CCCNCC1 [Hydroxyfasudil]	> 19 µM
CCN(CC)CCCC(C)Nc1ccnc2cc(Cl)ccc12 (stereo not drawn)	25.8 µM
Nc1nc(F)nc2c1ncn2[C@@H]1O[C@H](CO)[C@@H](O)[C@@H]1O	> 10 µM
O=C(Nc1ccc(OC(F)(F)Cl)cc1)c1cnc(N2CC[C@@H](O)C2)c(-c2cc[nH]n2)c1	> 1 µM
Cc1cc(Nc2nc(N[C@@H](C)c3ncc(F)cn3)ncc2Cl)[nH]n1	> 1 µM
Cc1ccc(NC(=O)c2ccc(CN3CC[C@H](N(C)C)C3)c(C(F)(F)F)c2)cc1Nc1nccc(-c2cncnc2)n1	> 1 µM
Cc1sc2c(c1C)C(c1ccc(Cl)cc1)=N[C@@H](CC(=O)Nc1ccc(OCCOCCOCCOCCNc3cccc4c3C(=O)N(C3CCC(=O)NC3=O)C4=O)cc1)c1nnc(C)n1-2 (stereo partly drawn)	> 0.3 µM
COC(=O)N[C@@H](C)CNc1nccc(-c2cn(C(C)C)nc2-c2cc(Cl)cc(NS(C)(=O)=O)c2F)n1	> 1 µM
Cc1c(N)nc([C@H](CC(N)=O)NC[C@H](N)C(N)=O)nc1C(=O)N[C@H](C(=O)N[C@H](C)[C@@H](O)[C@H](C)C(=O)N[C@H](C(=O)NCCc1nc(-c2nc(C(=O)NCCC[S+](C)C)cs2)cs1)[C@@H](C)O)[C@@H](O[C@@H]1O[C@@H](CO)[C@@H](O)[C@H](O)[C@@H]1O[C@H]1O[C@H](CO)[C@@H](O)[C@H](OC(N)=O)[C@@H]1O)c1c[nH]cn1	> 10 µM
C[C@]12CC[C@@H]3c4ccc(O)cc4C[C@@H](CCCCCCCCC[S+]([O-])CCCC(F)(F)C(F)(F)F)[C@H]3[C@@H]1CC[C@@H]2O (stereo partly drawn)	> 1 µM
COc1cc2c(cc1OC(C)C)[C@H](c1ccc(Cl)cc1)N(c1ccc(N(C)C[C@H]3CC[C@H](N4CCN(C)C(=O)C4)CC3)cc1)C(=O)C2	> 25 µM
Cc1nc(-c2cn3c(n2)-c2ccc(-c4cnn(C(C)(C)C(N)=O)c4)cc2OCC3)n(C(C)C)n1	> 1 µM
Cc1cc([C@@H](C)Nc2ccccc2C(=O)O)c2nc(N3CCOCC3)cc(=O)n2c1	> 2.5 µM
Cc1ccc(NS(=O)(=O)c2cccc(C#N)c2)c2[nH]cc(C#N)c12	> 50 µM
CC(C)c1cc(C(=O)N2Cc3ccc(CN4CCN(C)CC4)cc3C2)c(O)cc1O	> 2.5 µM
FC(F)(F)c1ccc(/C=C/c2nc(COc3ccc(CCCCn4ccnn4)cc3)co2)cc1	> 1 µM
O=C1CCc2c(Oc3ccc4c(c3)[C@@H]3[C@H](O4)[C@H]3c3nc4cc(C(F)(F)F)ccc4[nH]3)ccnc2N1	> 10 µM

* * *

Quick reference for TC50 cytotoxicity among some compounds
System: DLD1 NRF2-GOF
Test: TC50 cytotoxicity; higher = less toxic
Details: 72 h; CellTox Green cytotoxicity
observable: TC50 cytotoxicity

> print(dat)
                                   compound    result
1              CC(C)Cn1cnc2c(N)nc3ccccc3c21  > 2.5 µM
2  CC(=O)[C@]1(O)Cc2c(O)c3c(c(O)c2[C@@H](O[C@H]2C[C@H](N)[C@H](O)[C@H](C)O2)C1)C(=O)c1ccccc1C3=O  0.219 µM
3  CC(C)C(=O)Nc1ccc([N+](=O)[O-])c(C(F)(F)F)c1 [Flutamide]   > 10 µM
4  COc1cccc2c1C(=O)c1c(O)c3c(c(O)c1C2=O)C[C@@](O)(C(=O)CO)C[C@@H]3O[C@H]1C[C@H](N)[C@@H](O)[C@H](C)O1 [Epirubicin]    > 1 µM
5       COc1ccc(Cn2ccc3ccc(C(=O)NO)cc32)cc1   > 10 µM
6  CC1=NN(c2ccc(C(=O)O)cc2)C(=O)C1=Cc1ccc(-c2cc(C)c(C)cc2[N+](=O)[O-])o1   > 25 µM
7  CC(C)[C@H]1C(=O)N[C@@H](CCCNC(=N)N)C(=O)NCC(=O)N[C@@H](CC(=O)O)C(=O)N[C@H](Cc2ccccc2)C(=O)N1C [Cilengitide]   > 10 µM
8  Nc1ncnc2c1nc(N)n2[C@@H]1O[C@H](CO)[C@@H](O)[C@H]1O    5.2 µM

* * *

Test system: DLD1 NRF2-GOF
Experiment: TC50 cytotoxicity; higher = less toxic
Settings: 72 h; CellTox Green cytotoxicity
observable: TC50 cytotoxicity

> print(dat)
                              record.smiles         observable     result
1  Cc1nc(C(=O)NCC(=O)O)c(O)c2ccc(Oc3ccccc3)cc12  TC50 cytotoxicity    > 10 µM
2  O=C(NC[C@H](O)CN1CCc2ccccc2C1)c1cc(NC2COC2)ncn1  TC50 cytotoxicity    > 10 µM
3  CCN(CCO)CCCOc1ccc2c(Nc3cc(CC(=O)Nc4cccc(F)c4)[nH]n3)ncnc2c1  TC50 cytotoxicity  0.0568 µM
4  C[C@H](Nc1ncnc2[nH]cnc12)c1cc2ccc(F)cc2nc1-c1ccccn1  TC50 cytotoxicity     > 1 µM
5  Cc1cn(-c2cc(NC(=O)c3ccc(C)c(Nc4nccc(-c5cccnc5)n4)c3)cc(C(F)(F)F)c2)cn1  TC50 cytotoxicity    > 10 µM
6  CNCc1ccc(-c2[nH]c3cc(F)cc4c3c2CCNC4=O)cc1  TC50 cytotoxicity    > 10 µM
7  CCS(=O)(=O)N1CC(CC#N)(n2cc(-c3ncnc4[nH]ccc34)cn2)C1  TC50 cytotoxicity   > 2.5 µM
8  COc1ccccc1S(=O)(=O)Nc1ccc2c(c1)CN(C)C(=O)N2  TC50 cytotoxicity    > 30 µM
9  C[C@@H]1COCCN1c1cc(C2([S@](C)(=N)=O)CC2)nc(-c2cc[nH]c3nccc2-3)n1  TC50 cytotoxicity    > 25 µM

* * *

System: DLD1 NRF2-GOF
Assay: drug sensitivity score (DSS) cytotoxicity (DSS score); higher = more toxic; extreme values may be limits of the assay
Conditions: 72 h; CellTox Green cytotoxicity
observable: drug sensitivity score

record smiles	observable	numeric readout
C=CC(=O)N1CC/C(=C\c2ccc(F)c([N+](=O)[O-])c2)C(=O)/C(=C/c2ccc(F)c([N+](=O)[O-])c2)C1	drug sensitivity score	2.7
CCN(CC)CCNC(=O)c1c(C)[nH]c(/C=C2\C(=O)Nc3ccc(F)cc32)c1C	drug sensitivity score	0
CN1CCN(CCOc2cc(OC3CCOCC3)c3c(Nc4c(Cl)ccc5c4OCO5)ncnc3c2)CC1	drug sensitivity score	0.1
CC[C@]1(O)C[C@H]2CN(CCc3c([nH]c4ccccc34)[C@@](C(=O)OC)(c3cc4c(cc3OC)N(C=O)[C@H]3[C@@](O)(C(=O)OC)[C@H](OC(C)=O)[C@]5(CC)C=CCN6CC[C@]43[C@@H]65)C2)C1	drug sensitivity score	5.5
C[C@H]1Oc2cc(cnc2N)-c2c(nn(C)c2C#N)CN(C)C(=O)c2ccc(F)cc21	drug sensitivity score	0
COc1cc(Nc2ncc3c(n2)-c2ccc(Cl)cc2C(c2c(F)cccc2OC)=NC3)ccc1C(=O)O	drug sensitivity score	6.6
COc1cc2nccc(Oc3ccc(NC(=O)NC4CC4)c(Cl)c3)c2cc1C(N)=O	drug sensitivity score	0
